# ASSAY METHOD TEXT: NCI Yeast Anticancer Drug Screen. Data for the cln2 rad14 strain (AID 165);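 also: 0% = growth equal to vehicle treated cultures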
# PARTICULARS: S. cerevisiae cln2 rad14 strain, at 50.0 µM, active compounds read high
This is part of a sample that, as a whole, favours compounds with a hit. Of some 79,000 tested, about 15% had one in any assay.

MOLECULE: O=C(CCn1[nH]c(=O)c(Cl)c(Cl)c1=O)NNC(=O)C[n+]1ccccc1
growth inhibition (%): 34.2
//
MOLECULE: O=C1C(CCCS)C(c2ccccc2)=NN1c1ccccc1 (stereo not given)
growth inhibition (%): -12.8
//
MOLECULE: COc1ccccc1N1C(Cl)C(=O)C1c1c[nH]c2ccccc12 (stereo not given)
growth inhibition (%): 4.4
//
MOLECULE: CC1(C(N)=O)CCC1
growth inhibition (%): -24.1
//
MOLECULE: CCCCCc1c(C)[nH]n(C(N)=NCCSCc2nc[nH]c2C)c1=O
growth inhibition (%): 22.4
//
MOLECULE: CCNc1ncc2nc(CC(=O)OC)c(=O)n(CC)c2n1
growth inhibition (%): -75.6
//
MOLECULE: CCN(CC)c1ccc(N)cc1
growth inhibition (%): -4.4
//
MOLECULE: CC(=O)OCC1OC(n2ncnc2CBr)C(OC(C)=O)C(OC(C)=O)C1OC(C)=O (stereo not given)
growth inhibition (%): 8.45
//
MOLECULE: C=C(Cl)COC(=O)C(C)O (stereo not given)
growth inhibition (%): 24.4
//
MOLECULE: COc1c(OC(C)=O)c(OC(C)=O)cc2c1-c1ccc(OC)c(=O)cc1C(NC(C)=O)CC2 (stereo not given)
growth inhibition (%): 1.35
//
MOLECULE: O=C1CC23CC(=O)CC2(C1)c1ccccc1C3=O (stereo not given)
growth inhibition (%): 6.2
//
MOLECULE: O=P(O)(OCC(Br)CBr)OCC(Br)CBr (stereo not given)
growth inhibition (%): -45
//
MOLECULE: CC1(C)CCCC/C1=N\Nc1ccc([N+](=O)[O-])cc1[N+](=O)[O-]
growth inhibition (%): -22.2
//
MOLECULE: CC1=C(O)C(=O)C2C(=O)C1C(C)C2c1ccccc1 (stereo not given)
growth inhibition (%): -7.6
//
MOLECULE: Cc1nc(-c2nc(C)c(C(=O)NNC(=O)C[n+]3ccccc3)s2)sc1C(=O)NNC(=O)C[n+]1ccccc1
growth inhibition (%): -20.9
//
MOLECULE: O=C1/C(=C/c2ccco2)N=C2Sc3c(nc[nH]c3=O)N12
growth inhibition (%): -3.65
//
MOLECULE: O=C(O)C=C(CBr)CBr
growth inhibition (%): -24.1
//
MOLECULE: COc1ccc(CCN2C(=O)C(=O)N(C(C)C)C2=O)cc1OC
growth inhibition (%): 16.4
//
MOLECULE: Cc1ccc(S(=O)(=O)n2oc(N)c(Cc3ccccc3)c2=O)cc1
growth inhibition (%): -23.5
//
MOLECULE: COc1ccc(C2=C(N)c3cc(OC)ccc3C2=O)cc1
growth inhibition (%): -0.3
//
MOLECULE: O=C1c2ccccc2C2(O)Nc3cc(O)ccc3C12O (stereo not given)
growth inhibition (%): -14.1
//
MOLECULE: CSc1ccc(NC(=O)c2ccc(C(=O)Nc3ccc(SC)cc3)cc2)cc1
growth inhibition (%): -14.9
//
MOLECULE: C[N+](C)(C)CC(=O)NN
growth inhibition (%): -17.6
//
MOLECULE: Cn1c2ccccc2c2c3c(ccc21)C(=O)c1ccccc1C3=O
growth inhibition (%): -62.6
//
MOLECULE: COc1cccc(/C=C\C#N)c1
growth inhibition (%): -7.05
